Just for reference, PubChem BioAssay AID1345085 is where these values come from.

# Test system: CASKI
# experiment notes: Confirmatory qHTS for gynecologic anti-cancer compounds from libraries of approved drugs and bioactive compounds; note: nearly all actives have a fitted effect of over 55% in size
# condition label: gynecologic cancer cell panel viability, ATPlite luminescence, 48 h; series mostly up to 57.6 µM
# Description: National Center for Advancing Translational Sciences [NCATS] Assay Overview: Chemotherapeutic drug responses vary from cancer to cancer and from patient to patient. […] ATPlite is a luminescence based assay reliant on the conversion of a luciferase substrate to light in the presence of ATP. As a cytotoxic compound will suppress growth and decrease the number of cells, the concentration of ATP will decrease, and less light signal will be detected in the well. […]
Results filed as inconclusive are left out. Activity calls are given as the source filed them. Calls come from the whole dose curve; as a rule, active = well fitted cell-killing curve with a large enough effect; inconclusive = small, poorly fitted or top-dose-only effect, or effect the other way; inactive = no such curve, though single readings can be large or run the other way.
Please answer using one outcome listed in active, inactive

Study these solved cases before continuing.
CCOc1ccccc1-n1c(C(C)N2CCN(C(=O)COc3ccc(Cl)cc3)CC2)nc2ccccc2c1=O (stereo unspecified) | inactive
O=C(O)Cc1ccccc1 | inactive
C[C@]12CC[C@H]3[C@@H](CCC4=CC(=O)CC[C@@H]43)[C@@H]1CC[C@@H]2OC(=O)CCc1ccccc1 | inactive
CCC(=O)O[C@H]1CC[C@H]2[C@@H]3CCC4=CC(=O)CC[C@]4(C)[C@H]3CC[C@]12C | inactive
C/C=C(/C)C(=O)O[C@H]1C(C)=C2[C@H]([C@@H]1OC(=O)CCCCCCC)[C@@](C)(OC(C)=O)C[C@H](OC(=O)CCC)[C@@]1(O)[C@H]2OC(=O)[C@@]1(C)O | active

Now turn to the next compound.
Field: outcome | Entry: Cc1sc2c(c1C)C(c1ccc(Cl)cc1)=NC(CC(=O)OC(C)(C)C)c1nnc(C)n1-2 (stereo unspecified)
active
